system: A-431; experiment: Cytotoxicity against human A431 cells assessed as reduction in cell viability after 96 hrs by SRB asssay; format: functional, cell-based; settings: A-431, 96 h
In this section, each of the compounds is paired with its reported pIC50.
pIC50 here: minus log base 10 of the concentration, concentration in moles per litre.

compound	pIC50
CC1=CC[C@]23O[C@@]2(C)CC[C@@H]2[C@H](OC(=O)[C@H]2CN2CCCCC2)[C@@H]13	4.72
CC1=CC[C@]23O[C@@]2(C)CC[C@@H]2[C@H](OC(=O)[C@H]2CN(C)C)[C@@H]13	5.28
CC1=CC[C@]23O[C@@]2(C)CC[C@@H]2[C@H](OC(=O)[C@H]2CN2CCSCC2)[C@@H]13	4.77
C=C1C(=O)O[C@@H]2[C@H]3C(C)=CC[C@@]34O[C@@]4(C)CC[C@@H]12 [ARGLABIN]	5.35
CC1=CC[C@]23O[C@@]2(C)CC[C@@H]2[C@H](OC(=O)[C@H]2CN2CCNCC2)[C@@H]13	5.36

// pIC50 lookup, compound = "CC1=CC[C@]23O[C@@]2(C)CC[C@@H]2[C@H](OC(=O)[C@H]2CSc2ccccc2C(=O)O)[C@@H]13" , result: 4.87

// pIC50 lookup, compound = "CC1=CC[C@]23O[C@@]2(C)CC[C@@H]2[C@H](OC(=O)[C@H]2CSCCO)[C@@H]13" , result: 4.89
